tgt: CYP2C9 (Homo sapiens)
Construct: tissue BD-Gentest 452117; host or cells: human liver microsomes
Sequence (P11712 whole entry): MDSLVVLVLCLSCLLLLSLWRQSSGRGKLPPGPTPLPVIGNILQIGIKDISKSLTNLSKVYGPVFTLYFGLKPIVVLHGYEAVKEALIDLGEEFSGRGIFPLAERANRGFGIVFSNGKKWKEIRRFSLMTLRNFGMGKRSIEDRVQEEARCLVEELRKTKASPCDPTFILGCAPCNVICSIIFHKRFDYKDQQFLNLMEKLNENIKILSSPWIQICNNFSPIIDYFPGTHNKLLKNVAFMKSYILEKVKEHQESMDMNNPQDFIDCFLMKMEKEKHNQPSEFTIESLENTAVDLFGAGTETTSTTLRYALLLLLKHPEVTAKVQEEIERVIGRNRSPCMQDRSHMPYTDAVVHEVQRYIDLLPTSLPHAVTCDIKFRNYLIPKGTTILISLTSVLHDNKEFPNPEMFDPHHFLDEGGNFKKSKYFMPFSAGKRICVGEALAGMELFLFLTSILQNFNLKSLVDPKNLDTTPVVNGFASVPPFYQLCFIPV
assay.name: CYP inhibition assay in human liver microsome, CYP2C9
Format: in vitro ADME
assay.context: human, human liver microsomes, probe diclofenac 5 μM, substrate diclofenac 5 μM, first value of 2C9/2D6/3A4
Description: This is a high throughput screening assay used for assessment of reversible inhibition of CYP2C9, CYP2D6, and CYP3A4 activity of test compounds in human liver microsome (HLM) in early discovery stage. 10 mM DMSO stock solutions of test compounds were diluted in DMSO to generate 2 mM intermediate stock solution. 250 nL, of intermediate stock solution were transferred in duplicate into 3 separate 384 well microtitre plates (assay-ready plates). A mixture of HLM and each substrate was made up. […]
quantity: inhibition at 5 min, 10 µM (%)
The reply should contain only the number, in %.

inhibition at 5 min, 10 µM on CYP2C9 (Homo sapiens) for C[C@@H]1CN(c2ccc(C#N)c3ncccc23)C[C@H](CN2CCC(c3cccc(C4CCNCC4)c3)CC2)O1 [Example 2] is 2

The reported inhibition at 5 min, 10 µM value, CYP2C9 (Homo sapiens), for Cc1cc(N2CCNCC2)nc(N2CCN(C[C@H]3CN(c4ccc(C#N)c5nccnc45)C[C@@H](C)O3)CC2)n1 [Example 114] reads 7.5

Response field inhibition at 5 min, 10 µM (CYP2C9 (Homo sapiens)) for item C[C@@H]1CN(c2ccc(C#N)n3ncc(F)c23)C[C@H](CN2CC(c3ccc(N4CC(C)(N)C4)nc3)C2)O1 [Example 158] : -5.5

Measured on CYP2C9 (Homo sapiens), [2H]c1ccc2c(N3C[C@H](CN4CCN(c5ccc(N[C@H]6CNC[C@H]6F)nc5)CC4)O[C@H](C)C3)ccc(C#N)c2n1 [Example 162] has a documented inhibition at 5 min, 10 µM of -2.5

The measured inhibition at 5 min, 10 µM that C[C@@H]1CN(c2ccc(C#N)n3ncc(F)c23)C[C@H](CN2CCN(c3ccc(N4C[C@H]5NCCO[C@@H]5C4)nc3)CC2)O1 [Example 168] showed for CYP2C9 (Homo sapiens) is -8

Test item C[C@@H]1CN(c2ccc(C#N)c3ncccc23)C[C@H](CN2CCN(c3ccncc3)CC2)O1 [ER-888286, reference compound] ; CYP2C9 (Homo sapiens); reported inhibition at 5 min, 10 µM was 29.5

Form: item C[C@@H]1CN(c2ccc(C#N)c3ncccc23)C[C@H](CN2CCN(c3ccc(N4CCNCC4)cn3)CC2)O1 [Example 8] ; test system CYP2C9 (Homo sapiens); inhibition at 5 min, 10 µM: 1

---

tgt: human TLR8 (Homo sapiens)
Sequence (Q9NR97 27-1041): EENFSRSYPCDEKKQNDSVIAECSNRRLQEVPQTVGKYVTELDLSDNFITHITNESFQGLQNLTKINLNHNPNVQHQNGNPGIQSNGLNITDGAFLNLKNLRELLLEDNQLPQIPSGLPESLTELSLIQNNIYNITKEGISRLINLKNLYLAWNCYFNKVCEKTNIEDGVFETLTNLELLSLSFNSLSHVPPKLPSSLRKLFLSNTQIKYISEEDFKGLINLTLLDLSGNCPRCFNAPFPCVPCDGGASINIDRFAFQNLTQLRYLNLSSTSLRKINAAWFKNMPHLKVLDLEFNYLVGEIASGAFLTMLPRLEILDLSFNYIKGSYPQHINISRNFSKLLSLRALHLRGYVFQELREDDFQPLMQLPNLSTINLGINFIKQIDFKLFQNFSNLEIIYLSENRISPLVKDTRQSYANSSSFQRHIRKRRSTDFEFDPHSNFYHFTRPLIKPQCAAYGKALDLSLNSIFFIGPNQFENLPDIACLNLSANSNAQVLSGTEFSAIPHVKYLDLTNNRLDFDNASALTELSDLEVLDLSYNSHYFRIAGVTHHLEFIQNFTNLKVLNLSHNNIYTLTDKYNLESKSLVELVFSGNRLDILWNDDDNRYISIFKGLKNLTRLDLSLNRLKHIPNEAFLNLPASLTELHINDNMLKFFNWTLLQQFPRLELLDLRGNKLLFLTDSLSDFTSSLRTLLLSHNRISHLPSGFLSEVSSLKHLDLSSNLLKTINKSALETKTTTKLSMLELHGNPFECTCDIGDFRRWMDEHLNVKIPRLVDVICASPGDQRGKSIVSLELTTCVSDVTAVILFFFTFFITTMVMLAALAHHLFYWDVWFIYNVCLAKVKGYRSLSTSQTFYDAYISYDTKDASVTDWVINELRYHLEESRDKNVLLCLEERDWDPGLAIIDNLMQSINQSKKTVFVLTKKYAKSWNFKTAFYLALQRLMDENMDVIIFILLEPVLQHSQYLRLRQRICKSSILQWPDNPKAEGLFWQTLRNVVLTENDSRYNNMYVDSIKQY
assay.name: HEK293-Blue-hTLR-8 cells assay (SEAP reporter, R848 stimulation)
assay.context: HEK293-Blue-hTLR8 cells, R848, 20 hrs; read-out: HEK/hTLR8 IC50
Consider the following compounds; for each one, report its IC50.
Just the number in nM, nothing appended.

Query `[2H]c1ccc2c(N3C[C@H](CN4CCN(c5ccc(N6C[C@@H](N)[C@H](OC)C6)nc5)CC4)O[C@H](C)C3)ccc(C#N)c2n1` yields IC50 of 8

The recorded IC50 for `C[C@@H]1CN(c2ccc(C#N)c3ncccc23)C[C@H](CN2CCN(c3ccnc(N4CCN(C(=O)[C@@H]5CCCN5)CC4)n3)CC2)O1` is 5

Recorded result, `C[C@@H]1CN(c2ccc(C#N)c3ncccc23)C[C@H](CN2CCN(c3nccc(N4CCNCC4)n3)CC2)O1` , IC50: 3

Query `Cc1ccc(N2C[C@H](CN3CCN(c4ccnc(N5CCN[C@H](C)C5)n4)CC3)O[C@H](C)C2)c2nccnc12` yields IC50 of 12

GET /value?item= `[2H]c1ccc2c(N3C[C@H](CN4CCN(c5cccc(N6CC(C)(N)C6)n5)CC4)O[C@H](C)C3)ccc(C#N)c2n1` &field=IC50 returns 8

# compound `C[C@@H]1CN(c2cc(=O)n(C)c3ncccc23)C[C@H](CN2CC(c3ccc(N4C[C@H]5NCCO[C@@H]5C4)cc3)C2)O1` ; its IC50 = 51

---

So I've got a bunch of molecules here, and I need their pIC50 values.
tgt: human TLR8 (Homo sapiens)
assay.name: HEK293-Blue-hTLR-8 cells assay (SEAP reporter, R848 stimulation)
assay.context: HEK293-Blue-hTLR8 cells, R848, 20 hrs; read-out: HEK/hTLR8 IC50
Expect pIC50 as a plain number equal to -log10 of the molar concentration.

Record Cc1cc(N2CCN(C[C@H]3CN(c4ccc(C#N)c5ncccc45)C[C@@H](C)O3)CC2)nc(N2CCNC(C(C)(C)O)C2)n1 (stereo partly shown) ; system human TLR8 (Homo sapiens); pIC50 = 8.70

Known value: human TLR8 (Homo sapiens) pIC50 of the molecule C[C@@H]1CN(c2ccc(C#N)c3ncccc23)C[C@H](CN2CCN(c3ccccc3C3CNCCO3)CC2)O1 (stereo partly shown) equals 7.54

Item COC1CCN(c2nccc(N3CCN(C[C@H]4CN(c5ccc(C#N)c6ncccc56)C[C@@H](C)O4)CC3)n2)CC1N (stereo partly shown) ; assay system human TLR8 (Homo sapiens); pIC50 reported as 8.70

Summary line: Cc1cc(N2CCN(C[C@H]3CN(c4ccc(C#N)c5ncccc45)C[C@@H](C)O3)CC2)nc(N2CC[C@@H](N)C(F)C2)n1 (stereo in doubt) , human TLR8 (Homo sapiens), reported pIC50 = 9.00

Field pIC50 (system: human TLR8 (Homo sapiens)) for entry `[2H]c1ccc2c(N3C[C@H](CN4CCN(c5ncc(N6CC(C)(N)C6)cc5C)CC4)O[C@H](C)C3)ccc(C#N)c2n1` = 7.89

Form: item `C[C@@H]1CN(c2ccc(C#N)c3ncccc23)C[C@H](CN2CCN(c3cccc(N4CCN(C)CC4)n3)CC2)O1` ; test system human TLR8 (Homo sapiens); pIC50: 8.15

Reported human TLR8 (Homo sapiens) pIC50 for item `C[C@@H]1CN(c2ccc(C#N)c3ncccc23)C[C@H](CN2CCC(c3cccc(C4CCNCC4)c3)CC2)O1` was 7.59

pIC50 on human TLR8 (Homo sapiens) for `C[C@@H]1CN(c2ccc(C#N)c3ncccc23)C[C@H](CN2CCN(c3cc(N4CCNCC4)ccn3)CC2)O1` is 8.52

// returns pIC50 for `[2H]c1ccc2c(N3C[C@H](CN4CCN(c5ccc(N6CC(C)(N)C6)nc5C)CC4)O[C@H](C)C3)ccc(C#N)c2n1` with human TLR8 (Homo sapiens); value = 7.96

The recorded pIC50 with human TLR8 (Homo sapiens) for `Cc1cc(N2CCN(C[C@H]3CN(c4ccc(C#N)c5ncccc45)C[C@@H](C)O3)CC2)nc(N2CC(N)C2)n1` was 8.70

Reported pIC50 (human TLR8 (Homo sapiens)) for entry `C[C@@H]1CN(c2ccc(C#N)c3ncccc23)C[C@H](CN2CCN(c3ccc(CN)cc3)CC2)O1` is 7.48

The reported pIC50 value, human TLR8 (Homo sapiens), for Cc1cc(N2CCN(C[C@H]3CN(c4ccc(C#N)c5ncccc45)C[C@@H](C)O3)CC2)nc(N2CC(N)C(F)C2)n1 (stereo in doubt) reads 8.52

Query `C[C@@H]1CN(c2ccc(C#N)n3ncc(F)c23)C[C@H](CN2CCN(c3ccc(N4CC5(CCN5)C4)nc3)CC2)O1` on human TLR8 (Homo sapiens); pIC50 returned: 7.27
